Each recorded value in this set is attributed to patent US8916565B2.

Below, each entry is listed alongside its reported IC50.
- subjectOfTest: human NaV subtype, like NaV 1.7 (Homo sapiens)
- Sequence (Q15858 whole entry): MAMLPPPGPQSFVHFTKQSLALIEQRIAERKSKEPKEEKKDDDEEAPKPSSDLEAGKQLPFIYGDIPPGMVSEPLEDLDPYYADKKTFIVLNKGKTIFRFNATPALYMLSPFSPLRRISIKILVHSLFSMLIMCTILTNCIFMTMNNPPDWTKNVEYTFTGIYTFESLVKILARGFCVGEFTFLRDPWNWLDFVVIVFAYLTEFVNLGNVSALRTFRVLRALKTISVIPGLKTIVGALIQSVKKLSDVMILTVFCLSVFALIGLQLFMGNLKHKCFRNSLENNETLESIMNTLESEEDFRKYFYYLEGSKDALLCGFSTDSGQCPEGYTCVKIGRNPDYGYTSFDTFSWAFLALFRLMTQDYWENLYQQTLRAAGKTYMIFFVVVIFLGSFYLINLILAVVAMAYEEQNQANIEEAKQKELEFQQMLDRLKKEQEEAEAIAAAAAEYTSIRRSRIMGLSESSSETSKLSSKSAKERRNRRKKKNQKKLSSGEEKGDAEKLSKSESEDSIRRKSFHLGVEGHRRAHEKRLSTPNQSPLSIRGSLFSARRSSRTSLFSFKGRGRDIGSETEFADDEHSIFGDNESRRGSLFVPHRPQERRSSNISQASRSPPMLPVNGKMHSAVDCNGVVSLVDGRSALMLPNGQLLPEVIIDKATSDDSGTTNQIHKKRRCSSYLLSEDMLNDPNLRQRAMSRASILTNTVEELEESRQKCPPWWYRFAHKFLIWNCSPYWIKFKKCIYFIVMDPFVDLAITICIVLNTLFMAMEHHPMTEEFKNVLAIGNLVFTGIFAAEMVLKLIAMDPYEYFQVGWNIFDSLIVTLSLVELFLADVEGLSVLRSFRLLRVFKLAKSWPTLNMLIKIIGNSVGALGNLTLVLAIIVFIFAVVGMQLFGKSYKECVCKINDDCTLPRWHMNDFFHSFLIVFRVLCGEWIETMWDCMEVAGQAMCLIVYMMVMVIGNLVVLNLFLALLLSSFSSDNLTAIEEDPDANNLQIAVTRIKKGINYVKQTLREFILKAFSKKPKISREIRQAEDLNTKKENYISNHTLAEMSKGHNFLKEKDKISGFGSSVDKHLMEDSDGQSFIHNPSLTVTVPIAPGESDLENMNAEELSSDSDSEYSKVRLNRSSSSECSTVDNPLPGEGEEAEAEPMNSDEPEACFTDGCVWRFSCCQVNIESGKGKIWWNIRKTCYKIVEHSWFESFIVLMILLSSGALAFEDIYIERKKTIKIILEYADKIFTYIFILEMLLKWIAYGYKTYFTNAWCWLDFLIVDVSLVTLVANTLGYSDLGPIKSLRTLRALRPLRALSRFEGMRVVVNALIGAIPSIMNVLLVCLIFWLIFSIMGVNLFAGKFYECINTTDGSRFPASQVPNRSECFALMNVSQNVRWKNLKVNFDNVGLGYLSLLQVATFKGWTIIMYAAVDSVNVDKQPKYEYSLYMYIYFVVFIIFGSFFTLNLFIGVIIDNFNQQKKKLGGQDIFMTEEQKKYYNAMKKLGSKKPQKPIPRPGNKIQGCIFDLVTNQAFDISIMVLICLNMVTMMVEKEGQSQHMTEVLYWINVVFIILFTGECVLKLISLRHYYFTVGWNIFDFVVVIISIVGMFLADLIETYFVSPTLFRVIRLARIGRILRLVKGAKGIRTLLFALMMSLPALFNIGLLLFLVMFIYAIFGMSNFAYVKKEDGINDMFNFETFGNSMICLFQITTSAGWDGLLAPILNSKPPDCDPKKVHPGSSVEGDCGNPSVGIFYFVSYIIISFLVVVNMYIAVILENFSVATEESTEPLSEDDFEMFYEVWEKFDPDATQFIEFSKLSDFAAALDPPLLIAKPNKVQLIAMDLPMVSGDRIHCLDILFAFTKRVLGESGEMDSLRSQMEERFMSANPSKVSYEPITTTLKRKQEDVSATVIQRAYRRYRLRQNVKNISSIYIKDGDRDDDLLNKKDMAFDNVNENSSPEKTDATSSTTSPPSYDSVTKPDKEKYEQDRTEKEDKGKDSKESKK
- measurementNotes: E-VIPR optical membrane potential assay with electrical stimulation
- recordedConditions: active against one or more sodium channels; Table 3 does not name the assay or NaV subtype; read-out: Binned Activity Data (IC50)
- Source text: Assays for Detecting and Measuring NaV Inhibition Properties of Compound E-VIPR Optical Membrane Potential Assay Method with Electrical Stimulation Sodium channels are voltage-dependent proteins that can be activated by inducing membrane voltage changes by applying electric fields. The electrical stimulation instrument and methods of use are described in Ion Channel Assay Methods PCT/US01/21652, herein incorporated by reference and are referred to as E-VIPR. […] 7) Read Plate on E-VIPR. […]
quantityName: IC50

COc1cc(C(=O)N2CC[C@@]3(c4ccc(C(F)(F)F)n4CCN3C)[C@H](F)C2)ccc1OC(C)C [Compound 327]; ≤ 2 µM
C[C@H]1Cn2c(C(=O)C(F)(F)F)ccc2C2(CCN(C(=O)c3ccc(OCC(F)(F)F)cc3)CC2)N1C [Compound 463]; ≤ 2 µM
CC(C)Oc1ccc(C(=O)N2CCC3(CC2)c2c(F)cc(C(F)(F)F)n2CCN3C)cc1CO [Compound 390]; ≤ 2 µM
